All values here come from PubChem BioAssay (NCI).

Parameter: growth. Scope: all listed entries.
test system: KM12 colon; assay: NCI-60 one-dose screen, 48 h (100 = growth as untreated, 0 = no growth, -100 = all killed); settings: 10 µM
This is part of a sample that, as a whole, favours compounds with a hit. Of some 83,000 tested, about 20% had one in any assay.
metric: growth (%)

sample-smiles	unit-name	endpoint-value
COc1ccc(C(=O)/C=C/c2ccc(Cl)c(C(F)(F)F)c2)cc1S(N)(=O)=O	%	-43.7
Cc1ccc2nc(-c3ccc(-c4nnc(SCC(=O)Nc5ccc(Cl)cc5)o4)cc3)[nH]c2c1	%	50.8
CCN1CCN(c2ccc(NC(=O)Nc3ccc(-c4cc(C(=O)NC)c5ncccc5n4)cc3)cc2C(F)(F)F)CC1	%	-98.8
O=C1N/C(=N\c2nccs2)S/C1=C\c1cccs1	%	28.1
CCN1CCN(c2ccc(NC(=O)Nc3ccc4c(c3F)CCN4c3ccnc(C(=O)NC)c3)cc2C(F)(F)F)CC1	%	-83.3

* * *

test system: SF-539 CNS; experiment: NCI-60 one-dose screen, 48 h (100 = growth as untreated, 0 = no growth, -100 = all killed); settings: 10 µM
The panel holds about 83,000 compounds, 20% with a hit somewhere; the sample as a whole holds those more often.
growth values for the compounds below.
metric: growth (%)

compound	subject-of-test	metric	unit-name	endpoint-value
COc1cccc(-c2ccc(/C=N/NC(=O)c3[nH]c4ccc(Br)cc4c3-c3ccccc3)o2)c1	SF-539 CNS	growth	%	-67.7
O=C(Nc1ccc(Cl)c([N+](=O)[O-])c1)Nc1ccc(Cl)c([N+](=O)[O-])c1	SF-539 CNS	growth	%	11.4
Cc1cccc2cc(-c3cc(-c4ccccc4)nc(=S)[nH]3)c(Cl)nc12	SF-539 CNS	growth	%	82.1
O=C(CSc1nnc(-c2c[nH]c3ccccc23)n1-c1ccccc1)Nc1ccc(C(=O)/C=C/c2cccc([N+](=O)[O-])c2)cc1	SF-539 CNS	growth	%	89.6
O=C(Nc1ccc(I)cc1F)c1cc(-c2ccc(F)cc2F)ccc1O	SF-539 CNS	growth	%	0.0441
NS(=O)(=O)c1ccc(N=Nc2c(O)n(CC(=O)Nc3ccccc3Br)c3ccccc23)cc1	SF-539 CNS	growth	%	5.32
CC1=C(C(=O)OC(C)C)C(c2ccc(O)cc2)NC(=S)N1 (stereo not drawn)	SF-539 CNS	growth	%	98.2
Cc1ccc(/C(N)=N/c2sc(-c3ccccc3)nc2-c2ccccc2)cc1	SF-539 CNS	growth	%	79.7
CC(=C(c1ccc(OCCCN(C)C)cc1)c1ccc(OCCCN(C)C)cc1)c1ccccc1	SF-539 CNS	growth	%	-100
CCOC(=O)c1c(CSc2ccccc2)n(C)c2cc(CN(C)C)c(O)c(CN(C)C)c12	SF-539 CNS	growth	%	50.5
Cc1cccc2cc(-c3cc(-c4ccccc4)nc(=O)[nH]3)c(Cl)nc12	SF-539 CNS	growth	%	78.1
O=C(Cc1ccc2c(c1)CN(C1CCC(=O)NC1=O)C2=O)NCCc1ccccc1 (stereo not drawn)	SF-539 CNS	growth	%	29.1
CN(C)CCNC(=O)OCCCCOc1cc(O)c2c(=O)cc(-c3ccccc3)oc2c1	SF-539 CNS	growth	%	-100

* * *

Recorded growth, one value per entry.
test system: NCI-H522 lung; experiment: NCI-60 one-dose screen, 48 h (100 = growth as untreated, 0 = no growth, -100 = all killed); conditions: 10 µM
About 83,000 compounds went through this panel and 20% of them were active in at least one assay; those are over-represented in the sample as a whole.

compound	subject-of-test	growth (%)
Clc1cccc(N/N=C/c2c[nH]c3ccccc23)n1	NCI-H522 lung	16.1
Nc1cc(-c2cccc(C(=O)NCc3ccc4c(c3)OCO4)c2)ccn1	NCI-H522 lung	84.4
CN1C(=O)N(C)C2SC(N/N=C/c3ccccc3F)=NC21 (centres undefined)	NCI-H522 lung	46.1
O=C(Cn1cc(CSc2nnc3oc4ccccc4n23)nn1)Nc1cccc(Cl)c1	NCI-H522 lung	47.6

* * *

system: MALME-3M melanoma; experiment: NCI-60 one-dose screen, 48 h (100 = growth as untreated, 0 = no growth, -100 = all killed); details: 10 µM
The panel holds about 83,000 compounds, 20% with a hit somewhere; the sample as a whole holds those more often.
Collected growth values appear next to each entry.
metric: growth (%)

compound	endpoint-value
COc1ccc(N(C)c2cc(C#N)nc3ccccc23)cc1/C=C/C(=O)NO	-56.5
CC1=C(c2cc(-c3ccc(Cl)cc3)c(C#N)c(N)n2)C(c2ccccc2)NC(=S)N1 (configuration not stated)	4.96
O=C1Nc2cc(-c3ccc(NC(=O)c4cccs4)cc3)ccc2/C1=C/c1ccc[nH]1	78.2
Cc1ccc(-c2nc3ccc(C(=O)N=Nc4c(O)[nH]c5ccc(Br)cc45)cc3[nH]2)cc1	90.5
COc1ccc(/C=C/C(=O)c2ccc(NC(=O)CN3C(=O)NC(C)(c4ccccc4)C3=O)cc2)cc1 (configuration not stated)	90.5
CCCCSc1nc(Nc2ccc(/C(C)=N/NC(N)=S)cc2)c(C#N)c(-c2ccc(F)cc2)n1	33.9
COc1ccc2[nH]c(=O)c(CSc3cccc(N)c3)cc2c1	97.1
COc1cc(Cn2c(C(F)(F)F)cc3c(Cl)ncnc32)ccn1	71.2
O=C(CSc1nnc(-c2c[nH]c3ccccc23)n1-c1ccccc1)c1ccc(Br)cc1	71
O=C1Nc2ccc(F)cc2/C1=C/c1cccc(OCc2ccccc2)c1	32.3
CCCCOc1ccc(Nc2nc3ccccc3nc2Nc2ccc(OCCCC)cc2)cc1	106
Cc1noc2c(Cc3ccccc3)nn(CC(=O)N/N=C/c3ccc(Br)cc3)c(=O)c12	64.9
CN1CCN(Cc2ccc(NC(=O)c3cncc(C#Cc4cnc5ccc(N[C@H]6CCOC6)nn45)c3)cc2C(F)(F)F)CC1	-97.3
O=C(c1ccc(Cl)cc1)C1[C@H](c2ccccc2Br)[C@@H](c2ccccc2)NC12C(=O)Nc1ccccc12 (some centres not stated)	39.6
CN1CCN(c2ccc(Nc3nc(N4CCN(S(=O)(=O)c5ccc(F)cc5)CC4)c4sccc4n3)cc2)CC1	-97.9
COc1ccc2nc(Cl)c(-c3cc(-c4ccccc4)nc(=O)[nH]3)cc2c1	83.3
CC(=O)Oc1ccccc1C(=O)Oc1ccc(C(=O)/C=C/c2ccncc2)cc1	86.2

* * *

test system: OVCAR-3 ovarian; assay: NCI-60 one-dose screen, 48 h (100 = growth as untreated, 0 = no growth, -100 = all killed); conditions: 10 µM
Compounds without any hit were thinned out: in the full panel of roughly 83,000, 20% have a hit.
Hi! Could you tag entries with growth below 10% as 1, and those at or above as 0? Much appreciated.

compound	subject-of-test	class
OCCCNc1oc(-c2ccccc2)nc1[P+](c1ccccc1)(c1ccccc1)c1ccccc1	OVCAR-3 ovarian	1
Cc1ccc(C(=O)NNC(=O)CSc2nc3ccccc3c(=O)[nH]2)cc1	OVCAR-3 ovarian	0
CN(C)CCNC(=O)OCCCCOc1cc(O)c2c(=O)cc(-c3ccccc3)oc2c1	OVCAR-3 ovarian	1
O=C(Nc1ccc(OCc2ccccc2)cc1)Nc1ccc(Cl)c(C(F)(F)F)c1	OVCAR-3 ovarian	1
O=C(Nc1cccc(-c2cn(-c3ccc4oc(=O)ccc4c3)nn2)c1)Nc1cc(C(F)(F)F)cc(C(F)(F)F)c1	OVCAR-3 ovarian	0
O=C1c2ccccc2C(=O)c2c1c(C(=O)c1ccc(Cl)cc1)n1c2ccc2c3ccccc3ccc21	OVCAR-3 ovarian	0
O=C1NC(=NC23CC4CC(CC(C4)C2)C3)N/C1=C\c1ccc2ncsc2c1	OVCAR-3 ovarian	1
CC(=O)C1=C(C)NC(SCC(=O)Nc2ccc(S(=O)(=O)Nc3cc(C)on3)cc2)=NC1c1ccccc1 (configuration not stated)	OVCAR-3 ovarian	0
CC(=O)c1ccc(NC(=O)NCn2c(=O)[nH]c3ccccc3c2=O)cc1	OVCAR-3 ovarian	0
COc1cccc(-c2ccc(/C=N/NC(=O)c3[nH]c4ccc(Br)cc4c3-c3ccccc3)o2)c1	OVCAR-3 ovarian	1
COc1ccc2nc(Cl)c(-c3cc(-c4ccccc4)nc(=O)[nH]3)cc2c1	OVCAR-3 ovarian	0

* * *

system: HOP-92 NSCLC; test: NCI-60 one-dose screen, 48 h (100 = growth as untreated, 0 = no growth, -100 = all killed); conditions: 10 µM
Compounds without any hit were thinned out: in the full panel of roughly 83,000, 20% have a hit.

compound	subject-of-test	unit-name	growth
CCOC(=O)c1c(CSc2ccccc2)n(C)c2cc(CN(C)C)c(O)c(CN(C)C)c12	HOP-92 NSCLC	%	32.5
O=C(NC(=S)N1CCN(c2ncnc3c2cnn3-c2ccccc2)CC1)c1ccc(Cl)cc1	HOP-92 NSCLC	%	14.7
O=C(O)CCCCCCCCCCN1C(=O)/C(=C/c2cnc(-c3ccccc3)s2)SC1=S	HOP-92 NSCLC	%	52.1
CC1(c2ccccc2)NC(=O)N(CC(=O)Nc2ccc(C(=O)/C=C/c3ccc(Br)cc3)cc2)C1=O (stereo not drawn)	HOP-92 NSCLC	%	25.1
COc1ccc(-c2cc(C(=O)N=Nc3c(O)[nH]c4ccc(Br)cc34)c3ccccc3n2)cc1	HOP-92 NSCLC	%	71.4
COc1cc(/C=N/NC(=O)c2ccc3nc(-c4ccc(Cl)cc4)[nH]c3c2)cc(OC)c1OC	HOP-92 NSCLC	%	-64.5
O=C(O)CCCCCCCCCCN1C(=O)/C(=C/c2cnc(-c3ccc(Cl)cc3)s2)SC1=S	HOP-92 NSCLC	%	-40.9
COc1ccc2[nH]c(=O)c(CSc3cccc(N)c3)cc2c1	HOP-92 NSCLC	%	76.5
C=CC(=O)Nc1nc(-c2cccc(NS(=O)(=O)c3cccc4c(N(C)C)cccc34)c2)cs1	HOP-92 NSCLC	%	-49.2
CC(C)Sc1nc(NC2CC2)c(C#N)c(-c2ccccc2)n1	HOP-92 NSCLC	%	58.4
N#Cc1c(NC(=O)c2ccc(C(O)(C(F)(F)F)C(F)(F)F)cc2)sc2c1CCC(=O)C2	HOP-92 NSCLC	%	-55.7
O=C(c1ccc(O)cc1)C1[C@H](c2ccccc2Br)[C@@H](c2ccccc2)NC12C(=O)Nc1ccc(Br)cc12 (stereo partly drawn)	HOP-92 NSCLC	%	53.3
CC(=O)Nc1ccc(-n2cnc3cc(-c4ccc(NS(C)(=O)=O)cc4)ccc32)cc1	HOP-92 NSCLC	%	39.7
